- Procedure summary: Stability in mouse plasma assessed as parent compound remaining at 37 degC after 1 hr
- Assay type: ADME, cell-free
- Stated conditions: read-out: Stability
Measured attribute: remaining at 1 h (%)

[[record]]
compound = "C[C@@H](OC(=O)Cc1ccc(Cl)c(SC2=C(O)CC(c3c(Cl)cccc3Cl)CC2=O)c1)c1ccccc1 (stereo partly specified)"
measured_attribute = "remaining at 1 h"
experimental_value = 72


---

Below are pIC50 values measured for UniProtKB P00338.
pIC50: −log10 of the molar value.
Measured attribute: pIC50

[[record]]
compound = "O=C1CC(c2c(Cl)ccc(-c3ccncc3)c2Cl)CC(O)=C1Sc1ccccc1Cl (stereo not drawn)"
experimental_value = 7.07

[[record]]
compound = "O=C1CC(c2c(Cl)cccc2Cl)CC(O)=C1Sc1cc(O)ccc1Cl (stereo not drawn)"
experimental_value = 6.92

[[record]]
compound = "COc1ccc(Cl)c(SC2=C(O)CC(c3c(Cl)cccc3Cl)CC2=O)c1 (stereo not drawn)"
experimental_value = 6.43

